Value source: patent US20240382605A1

biological target: T1, hCD71-Nluc fusion protein (human, UniProt P02786 1-760); experiment: nanoBRET competition, tracer BCY17871-1598988 60 nM, HEK293 hCD71-Nluc membranes
T1 construct: whole, on cells; Used as crude membrane fractions of HEK293 cells stably expressing hCD71-Nluc; also called human transferrin receptor, CD71, fused to NanoLuc; not shown: NanoLuc (ProMega) luciferase joined through its N-terminal Val
T1 sequence (P02786 other isoform, or with tags, fused parts or gaps): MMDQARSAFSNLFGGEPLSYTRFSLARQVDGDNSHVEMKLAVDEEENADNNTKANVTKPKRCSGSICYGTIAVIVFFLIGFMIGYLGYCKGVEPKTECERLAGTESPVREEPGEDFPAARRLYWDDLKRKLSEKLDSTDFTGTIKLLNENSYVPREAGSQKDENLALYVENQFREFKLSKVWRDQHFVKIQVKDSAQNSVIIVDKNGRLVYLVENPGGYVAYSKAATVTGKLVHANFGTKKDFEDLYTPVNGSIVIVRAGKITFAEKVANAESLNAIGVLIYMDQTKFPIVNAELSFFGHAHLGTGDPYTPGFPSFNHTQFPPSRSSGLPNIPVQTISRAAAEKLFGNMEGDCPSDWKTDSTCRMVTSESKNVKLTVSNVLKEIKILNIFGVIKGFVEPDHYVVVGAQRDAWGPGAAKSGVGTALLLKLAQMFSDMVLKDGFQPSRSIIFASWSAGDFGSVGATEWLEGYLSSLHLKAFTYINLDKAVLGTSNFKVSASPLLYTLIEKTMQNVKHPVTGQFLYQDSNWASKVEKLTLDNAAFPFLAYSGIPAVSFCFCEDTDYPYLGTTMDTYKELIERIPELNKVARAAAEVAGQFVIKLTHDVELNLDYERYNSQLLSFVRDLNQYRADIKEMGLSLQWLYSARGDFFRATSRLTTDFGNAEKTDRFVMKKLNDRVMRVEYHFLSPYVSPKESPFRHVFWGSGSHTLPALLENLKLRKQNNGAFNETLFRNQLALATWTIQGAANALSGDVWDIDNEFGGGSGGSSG
Starred links: 1 amine or outer side, 2 acyl side, 3 side chain; linkers in the order of their positions; H or OH if unused. Positions of bridges follow the written chain, without caps; N, C: chain ends. Non-standard residues stand in square brackets, D forms with d. *: point of attachment. azidopropyl = N-terminal modification AzPro, [N-]=[N+]=NCCC*; TATB = O=C(C[*:1])N1CN(C(=O)C[*:2])CN(C(=O)C[*:3])C1; oligonucleotide 1590463 = not defined here; Hyp = O=C(O)[C@@H]1C[C@@H](O)CN1; Aze = O=C(O)[C@@H]1CCN1
MEASURED ENDPOINT: Ki (nM)

INSERT INTO results (binder, recorded_result) VALUES
  ('{oligonucleotide 1590463-BCN linker-azidopropyl}-CS[Aze]DAHLGCISYC-NH2 (linker 1-9-13 via TATB; reading uncertain; also: printed as CiS[Aze]DAHLGCiiISYCiii, also called Compound No. 1590463 conjugated to BCY17880) [1590463-BCY17880]', 102),
  ('NWNCSPDAHLGCISYCX (not fully specified; as printed NWNCSPDAHLGCISYC[K(N3)]: no N-terminal modification; C-terminal amide; three Cys bound to TATB scaffold; [K(N3)] 6-azido lysine at 17 joined via BCN linker to oligonucleotide 1590463, also called Compound No. 1590463 conjugated to BCY17870) [1590463-BCY17870]', 7),
  ('{oligonucleotide 1590463-BCN linker-azidopropyl}-CS[Hyp]DAHLGCISYC-NH2 (linker 1-9-13 via TATB; reading uncertain; also: printed as CS[HyP]DAHLGCISYC, also called Compound No. 1590463 conjugated to BCY17878) [1590463-BCY17878]', 74),
  ('{oligonucleotide 1590463-BCN linker-azidopropyl}-CP[Hyp]DAYLGCISYC-NH2 (linker 1-9-13 via TATB; reading uncertain; also: printed as CP[HyP]DAYLGCISYC, also called Compound No. 1590463 conjugated to BCY17876) [1590463-BCY17876]', 29),
  ('CSPDAHLGCISYCEPWX (not fully specified; as printed CSPDAHLGCISYCEPW[K(N3)]: N-terminal acetyl; C-terminal amide; three Cys bound to TATB scaffold; [K(N3)] 6-azido lysine at 17 joined via BCN linker to oligonucleotide 1590463, also called Compound No. 1590463 conjugated to BCY17873) [1590463-BCY17873]', 6);
